# Test system: MYLK
# CONDITION DETAILS: concentration: 1 μM, replicates: in singlicate; n = 1;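 also: KINOMEscan kinase panel screen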
ASSAY ENDPOINT: %Inh (%)
Record the value in %, omitting the unit from your answer.

Reference set (5 entries):
{"MOLECULE": "Nc1nc(-c2ccccc2F)c(-c2ccnc3ccccc23)s1 [GW560459]", "ASSAY ENDPOINT": "%Inh", "MEASUREMENT": 11}
{"MOLECULE": "CCc1ccc(-c2ccc3c(c2)-c2nn(C)cc2S(=O)(=O)N3C)cc1", "ASSAY ENDPOINT": "%Inh", "MEASUREMENT": 3}
{"MOLECULE": "CCC(=O)c1c(-c2ccccc2)c2cc(Cl)ccc2c(=O)n1Cc1cc(S(C)(=O)=O)n(CC(N)=O)n1", "ASSAY ENDPOINT": "%Inh", "MEASUREMENT": 0}
{"MOLECULE": "Cc1nc(N(C)[C@H]2CN(C(=O)CC#N)CC[C@H]2C)c2cc[nH]c2n1", "ASSAY ENDPOINT": "%Inh", "MEASUREMENT": 10}
{"MOLECULE": "CCS(=O)c1ccc(-c2coc3ccc(-c4nnc(C)o4)cc23)cc1 (stereo not shown)", "ASSAY ENDPOINT": "%Inh", "MEASUREMENT": 0}

Query %Inh for "COC(=O)c1c(-c2ccccc2)c2cc(Br)ccc2c(=O)n1Cc1ccc(S(C)(=O)=O)cc1"
20

Query %Inh for "COC(=O)c1c(-c2ccccc2)c2cc(C)ccc2c(=O)n1Cc1ccccc1"
0

---

# System: DCAMKL3
# Construct: gene DCLK3
# CONDITION DETAILS: concentration: 1 μM, replicates: in singlicate; n = 1
Catalogue of %Inh readings, one per entry.
Record the value in %, omitting the unit from your answer.

{"MOLECULE": "Nc1nc(-c2ccccc2F)c(-c2ccnc3ccccc23)s1 [GW560459]", "MEASUREMENT TARGET": "DCAMKL3", "%Inh, %": 1}
{"MOLECULE": "CN1C(=O)C(Nc2cc(Cl)c(O)c(Cl)c2)=C(c2ccc(Cl)cc2)C1=O [SB-404321]", "MEASUREMENT TARGET": "DCAMKL3", "%Inh, %": 0}
{"MOLECULE": "COc1cc2ncn(-c3cc(OCCCc4ccccc4)c(C(N)=O)s3)c2cc1OC [GSK205189]", "MEASUREMENT TARGET": "DCAMKL3", "%Inh, %": 1}
{"MOLECULE": "COc1ccc(Nc2nccc(N3CCC(NS(=O)(=O)c4ccc(NC(C)=O)cc4)C3)n2)cc1 (stereo not drawn) [GSK1379729]", "MEASUREMENT TARGET": "DCAMKL3", "%Inh, %": 53}
{"MOLECULE": "COc1cc(Nc2ccnc3ccc(C(F)(F)F)cc23)cc(OC)c1OC [GW577382]", "MEASUREMENT TARGET": "DCAMKL3", "%Inh, %": 2}

Query %Inh for "COc1ccc(-c2coc3ccc(-c4nnc(SCc5cccc(C#N)c5)o4)cc23)cc1"
0

Query %Inh for Cc1cccc(-c2cc(-c3c[nH]nc3-c3ccccn3)ccn2)c1 [GW679395]
13

Query %Inh for O=C(NCCNc1ccnc(Nc2ccc(F)cc2)n1)Nc1ccc2c(c1)OCO2 [GSK1379882]
0

Query %Inh for COc1cc2nccc(Nc3ccc(OCc4ccc(NC(C)=O)cc4)cc3)c2cc1OC.Cl [GW440135]
0
